target: FGFR3 (Homo sapiens, UniProt P22607); assay: Enzymatic activity test of FGFR inhibitor, Caliper model; type: biochemical; conditions: kinase pre-incubation 10 minutes
Sequence (P22607 23-806): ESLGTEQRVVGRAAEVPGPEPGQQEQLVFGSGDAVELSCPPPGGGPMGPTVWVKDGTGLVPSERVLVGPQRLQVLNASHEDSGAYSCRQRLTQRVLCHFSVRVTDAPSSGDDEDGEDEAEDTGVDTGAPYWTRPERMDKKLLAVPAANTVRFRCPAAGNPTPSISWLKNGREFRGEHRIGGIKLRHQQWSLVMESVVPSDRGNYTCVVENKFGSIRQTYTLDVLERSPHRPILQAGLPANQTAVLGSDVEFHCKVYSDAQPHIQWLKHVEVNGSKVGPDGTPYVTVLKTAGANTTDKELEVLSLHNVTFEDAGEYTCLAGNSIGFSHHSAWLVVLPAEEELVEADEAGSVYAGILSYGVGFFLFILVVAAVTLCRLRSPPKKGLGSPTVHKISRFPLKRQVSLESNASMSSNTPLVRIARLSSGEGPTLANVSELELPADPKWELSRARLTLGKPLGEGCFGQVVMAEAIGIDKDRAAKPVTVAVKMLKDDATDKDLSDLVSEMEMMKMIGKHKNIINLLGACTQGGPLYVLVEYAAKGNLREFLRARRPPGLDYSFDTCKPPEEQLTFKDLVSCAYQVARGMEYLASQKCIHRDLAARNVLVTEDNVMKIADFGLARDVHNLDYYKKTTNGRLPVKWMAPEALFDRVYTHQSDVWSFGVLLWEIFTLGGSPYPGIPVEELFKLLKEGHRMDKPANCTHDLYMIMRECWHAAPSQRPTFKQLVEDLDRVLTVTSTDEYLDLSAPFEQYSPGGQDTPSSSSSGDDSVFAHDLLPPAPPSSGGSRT
pIC50: −log10 of the molar value.
parameter: pIC50

[[record]]
compound = "C=CC(=O)Nc1cc(N2CCN(CCC(F)(F)F)CC2)cnc1C(=O)Nc1cc(CCc2cc(OC)cc(OC)c2)n[nH]1 [Compound 15]"
value_measured = 8.41

[[record]]
compound = "C=CC(=O)Nc1ccccc1C(=O)Nc1cc(CCc2cc(OC)cc(OC)c2)[nH]n1 [Control a, reference compound]"
value_measured = 8.77

[[record]]
compound = "C=CC(=O)Nc1cc(N2CCN(CC(F)F)CC2)ccc1C(=O)Nc1cc(CCc2cc(OC)cc(OC)c2)n[nH]1 [Compound 3]"
value_measured = 8.34

[[record]]
compound = "C=CC(=O)Nc1cc(N2CCN(CC(F)(F)F)CC2)ccc1C(=O)Nc1cc(CCc2cc(OC)cc(OC)c2)n[nH]1 [Compound 2]"
value_measured = 8.55

[[record]]
compound = "C=CC(=O)Nc1cc(N2CCN(CCC(F)(F)F)CC2)c(OC)cc1C(=O)Nc1cc(CCc2cc(OC)cc(OC)c2)n[nH]1 [Compound 10]"
value_measured = 8.13

[[record]]
compound = "C=CC(=O)Nc1cc(N(C)CCC(F)(F)F)ccc1C(=O)Nc1cc(CCc2cc(OC)cc(OC)c2)n[nH]1 [Compound 13]"
value_measured = 8.51

[[record]]
compound = "C=CC(=O)Nc1cc(N2CCC(F)(F)C2)ccc1C(=O)Nc1cc(CCc2cc(OC)cc(OC)c2)n[nH]1 [Compound 8]"
value_measured = 8.64

[[record]]
compound = "C=CC(=O)Nc1cc(N2CC(F)(F)C2)ccc1C(=O)Nc1cc(CCc2cc(OC)cc(OC)c2)n[nH]1 [Compound 6]"
value_measured = 8.77

[[record]]
compound = "C=CC(=O)Nc1cc(N2CCC(F)(F)CC2)ccc1C(=O)Nc1cc(CCc2cc(OC)cc(OC)c2)n[nH]1 [Compound 7]"
value_measured = 8.64


---

biological target: FGFR1 (Homo sapiens, UniProt P11362); construct: purchased Cama (sic; Carna) 08-133; experiment: Enzymatic activity test of FGFR inhibitor, Caliper model; format: biochemical
Sequence (P11362 22-822): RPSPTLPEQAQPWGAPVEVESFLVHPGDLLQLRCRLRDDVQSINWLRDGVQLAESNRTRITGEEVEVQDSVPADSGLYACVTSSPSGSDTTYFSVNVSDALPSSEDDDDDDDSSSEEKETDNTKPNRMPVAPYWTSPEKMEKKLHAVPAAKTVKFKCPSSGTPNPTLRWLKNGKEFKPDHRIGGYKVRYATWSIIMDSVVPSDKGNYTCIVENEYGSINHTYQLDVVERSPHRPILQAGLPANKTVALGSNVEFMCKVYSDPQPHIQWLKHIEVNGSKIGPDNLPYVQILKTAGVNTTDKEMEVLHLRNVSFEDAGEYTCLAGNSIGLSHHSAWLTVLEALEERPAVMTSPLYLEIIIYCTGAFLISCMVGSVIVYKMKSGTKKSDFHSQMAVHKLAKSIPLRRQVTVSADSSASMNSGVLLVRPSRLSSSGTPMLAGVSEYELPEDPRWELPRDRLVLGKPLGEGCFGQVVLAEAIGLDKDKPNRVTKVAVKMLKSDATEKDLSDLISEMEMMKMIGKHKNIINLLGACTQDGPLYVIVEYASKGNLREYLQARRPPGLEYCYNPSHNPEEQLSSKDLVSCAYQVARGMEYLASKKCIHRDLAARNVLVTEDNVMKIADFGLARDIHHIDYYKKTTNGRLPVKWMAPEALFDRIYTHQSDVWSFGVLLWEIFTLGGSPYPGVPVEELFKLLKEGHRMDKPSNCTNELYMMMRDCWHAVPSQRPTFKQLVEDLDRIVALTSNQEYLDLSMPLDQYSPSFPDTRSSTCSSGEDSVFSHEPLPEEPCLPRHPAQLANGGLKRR
parameter: IC50 (nM)

[[record]]
compound = "C=CC(=O)Nc1cc(N2CCN(CC(F)F)CC2)ccc1C(=O)Nc1cc(CCc2cc(OC)cc(OC)c2)n[nH]1 [Compound 3]"
value_measured = 3.6


---

molecular target: FGFR4 (Homo sapiens, UniProt P22455); construct: purchased Invitrogen PR4380A; assay: Enzymatic activity test of FGFR inhibitor, Caliper model; assay type: biochemical; conditions: Caliper, kinase pre-incubation 10 minutes; read-out: FGFR4
Sequence (P22455 22-802): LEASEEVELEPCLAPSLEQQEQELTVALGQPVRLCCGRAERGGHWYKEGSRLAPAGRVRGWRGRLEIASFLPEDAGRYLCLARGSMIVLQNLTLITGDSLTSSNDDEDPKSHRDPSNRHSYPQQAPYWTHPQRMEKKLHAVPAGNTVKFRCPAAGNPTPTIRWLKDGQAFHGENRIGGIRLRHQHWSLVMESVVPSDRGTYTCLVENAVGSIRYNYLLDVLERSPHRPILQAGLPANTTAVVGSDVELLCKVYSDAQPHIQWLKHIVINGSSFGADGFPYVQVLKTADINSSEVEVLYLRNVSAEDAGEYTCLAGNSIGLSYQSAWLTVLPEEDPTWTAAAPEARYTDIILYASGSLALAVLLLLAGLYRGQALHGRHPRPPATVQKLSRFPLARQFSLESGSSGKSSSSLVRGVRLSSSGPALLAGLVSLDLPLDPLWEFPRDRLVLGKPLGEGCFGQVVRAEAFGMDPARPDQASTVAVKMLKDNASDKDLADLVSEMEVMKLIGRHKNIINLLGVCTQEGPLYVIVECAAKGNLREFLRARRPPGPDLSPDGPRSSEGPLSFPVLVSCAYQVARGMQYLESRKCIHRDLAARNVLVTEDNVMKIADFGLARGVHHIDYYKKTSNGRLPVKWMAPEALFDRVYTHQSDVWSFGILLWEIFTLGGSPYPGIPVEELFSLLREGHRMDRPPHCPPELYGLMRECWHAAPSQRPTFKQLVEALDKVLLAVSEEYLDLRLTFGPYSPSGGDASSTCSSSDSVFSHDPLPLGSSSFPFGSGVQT
pIC50: −log10 of the molar value.
Reported values of pIC50 for individual entries
parameter: pIC50

[[record]]
compound = "C=CC(=O)Nc1cc(N(C)CCC(F)(F)F)ccc1C(=O)Nc1cc(CCc2cc(OC)cc(OC)c2)n[nH]1"
parameter = "pIC50"
value_measured = 8.42

[[record]]
compound = "C=CC(=O)Nc1cc(N2CCN(CC(F)(F)F)CC2)ccc1C(=O)Nc1cc(CCc2cc(OC)cc(OC)c2)n[nH]1"
parameter = "pIC50"
value_measured = 8.48

[[record]]
compound = "C=CC(=O)Nc1cc(N2CCN(CCC(F)(F)F)CC2)ccc1C(=O)Nc1cc(CCc2cc(OC)cc(OC)c2)n[nH]1"
parameter = "pIC50"
value_measured = 8.92

[[record]]
compound = "C=CC(=O)Nc1cc(N2CCC(F)(F)C2)ccc1C(=O)Nc1cc(CCc2cc(OC)cc(OC)c2)n[nH]1"
parameter = "pIC50"
value_measured = 8.57

[[record]]
compound = "C=CC(=O)Nc1cc(N2CCC(F)(F)CC2)ccc1C(=O)Nc1cc(CCc2cc(OC)cc(OC)c2)n[nH]1"
parameter = "pIC50"
value_measured = 8.49

[[record]]
compound = "C=CC(=O)Nc1cc(OCC(F)(F)F)ccc1C(=O)Nc1cc(CCc2cc(OC)cc(OC)c2)n[nH]1"
parameter = "pIC50"
value_measured = 8.60

[[record]]
compound = "C=CC(=O)Nc1cc(N2CCN(CCC(F)(F)F)CC2)cnc1C(=O)Nc1cc(CCc2cc(OC)cc(OC)c2)n[nH]1"
parameter = "pIC50"
value_measured = 8.36

[[record]]
compound = "C=CC(=O)Nc1cc(N2CC(F)(F)C2)ccc1C(=O)Nc1cc(CCc2cc(OC)cc(OC)c2)n[nH]1"
parameter = "pIC50"
value_measured = 8.70

[[record]]
compound = "C=CC(=O)Nc1cc(OCCC(F)(F)F)ccc1C(=O)Nc1cc(CCc2cc(OC)cc(OC)c2)n[nH]1"
parameter = "pIC50"
value_measured = 8.44

[[record]]
compound = "C=CC(=O)Nc1cc(N2CCN(CC(F)(F)C(F)(F)F)CC2)ccc1C(=O)Nc1cc(CCc2cc(OC)cc(OC)c2)n[nH]1"
parameter = "pIC50"
value_measured = 8.23

[[record]]
compound = "C=CC(=O)Nc1cc(N2CCN(CCC(F)(F)F)CC2)c(OC)cc1C(=O)Nc1cc(CCc2cc(OC)cc(OC)c2)n[nH]1"
parameter = "pIC50"
value_measured = 8.36

[[record]]
compound = "C=CC(=O)Nc1cc(N2CCN(CCC(F)(F)F)C(C)C2)ccc1C(=O)Nc1cc(CCc2cc(OC)cc(OC)c2)n[nH]1 (stereo not drawn)"
parameter = "pIC50"
value_measured = 8.41

